B1: HDV Ribozyme (parent)
chain: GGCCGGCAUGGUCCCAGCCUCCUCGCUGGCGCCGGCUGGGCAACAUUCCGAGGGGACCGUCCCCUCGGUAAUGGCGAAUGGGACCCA

variants of: B1; test: self-cleavage, relative activity (ratio to wild type); higher = more cleavage; co-transcriptional
# class assignment by measured self-cleavage: class A = under 0.2, class B = from 0.2 up to 0.4, class C = 0.4 and over

Q) Form: Item = C32U A77G ; Class = ?
A) class C

Q) Form: Item = C36U A56C ; Class = ?
A) class C

Q) Form: Item = G67A G68U ; Class = ?
A) class C

Q) Form: Item = G59A A78U ; Class = ?
A) class B

Q) Form: Item = C24U C61U ; Class = ?
A) class C

Q) Form: Item = G11U G50U ; Class = ?
A) class C

Q) Form: Item = C21U G82U ; Class = ?
A) class A

Q) Form: Item = U20A C30A ; Class = ?
A) class A

Q) Form: Item = U46C U65G ; Class = ?
A) class C

Q) Form: Item = C26U G40A ; Class = ?
A) class C

Q) Form: Item = A16G C33G ; Class = ?
A) class A

Q) Form: Item = G35A C85G ; Class = ?
A) class C

Q) Form: Item = G17C U72G ; Class = ?
A) class A

Q) Form: Item = A78C C85U ; Class = ?
A) class A

Q) Form: Item = C13U G54A ; Class = ?
A) class C

Q) Form: Item = C61A C75G ; Class = ?
A) class A

Q) Form: Item = C4G U27A ; Class = ?
A) class B

Q) Form: Item = G17C A87G ; Class = ?
A) class B

Q) Form: Item = C48U C75G ; Class = ?
A) class A

Q) Form: Item = G10A C86A ; Class = ?
A) class C

Q) Form: Item = C61G A83U ; Class = ?
A) class A

Q) Form: Item = A78U G80U ; Class = ?
A) class B

Q) Form: Item = U23G G35A ; Class = ?
A) class B

Q) Form: Item = G29A C57A ; Class = ?
A) class B

Q) Form: Item = A43C C62A ; Class = ?
A) class C

Q) Form: Item = G2A G68C ; Class = ?
A) class A

Q) Form: Item = U46G G68U ; Class = ?
A) class C

Q) Form: Item = C19U C41U ; Class = ?
A) class A

Q) Form: Item = U12G C66G ; Class = ?
A) class C

Q) Form: Item = U9C A77C ; Class = ?
A) class B

Q) Form: Item = C57U G81C ; Class = ?
A) class A

Q) Form: Item = G34U U60G ; Class = ?
A) class A

Q) Form: Item = G35U C62A ; Class = ?
A) class B

Q) Form: Item = G35U G54U ; Class = ?
A) class C

Q) Form: Item = A45C C57U ; Class = ?
A) class C

Q) Form: Item = C18U G52U ; Class = ?
A) class C

Q) Form: Item = C13U U72C ; Class = ?
A) class B

Q) Form: Item = U46A U79A ; Class = ?
A) class C

Q) Form: Item = C61A G81U ; Class = ?
A) class B

Q) Form: Item = G6A G17U ; Class = ?
A) class A

Q) Form: Item = C4U G28U ; Class = ?
A) class A

Q) Form: Item = G17U U69A ; Class = ?
A) class B

Q) Form: Item = C24U G53U ; Class = ?
A) class C

Q) Form: Item = U12C C18U ; Class = ?
A) class A

Q) Form: Item = G6A A8C ; Class = ?
A) class B

Q) Form: Item = G28U C75A ; Class = ?
A) class A

Q) Form: Item = G10A G73C ; Class = ?
A) class A

Q) Form: Item = U47G G81A ; Class = ?
A) class B

Q) Form: Item = G2U C86A ; Class = ?
A) class A

Q) Form: Item = G52U G67A ; Class = ?
A) class B

Q) Form: Item = A8C A43G ; Class = ?
A) class A

Q) Form: Item = C22U U47A ; Class = ?
A) class C

Q) Form: Item = C36G A43G ; Class = ?
A) class A

Q) Form: Item = G39U C58G ; Class = ?
A) class C

Q) Form: Item = G6A C36G ; Class = ?
A) class A

Q) Form: Item = G31A C44A ; Class = ?
A) class A

Q) Form: Item = U37A U69A ; Class = ?
A) class A

Q) Form: Item = G52A A77G ; Class = ?
A) class C

Q) Form: Item = C49G G53C ; Class = ?
A) class B

Q) Form: Item = U23C G29A ; Class = ?
A) class A

Q) Form: Item = U47G G82A ; Class = ?
A) class C

Q) Form: Item = G28U C33U ; Class = ?
A) class A

Q) Form: Item = C13G C14A ; Class = ?
A) class A

Q) Form: Item = G11A C18G ; Class = ?
A) class A

Q) Form: Item = U27G G59C ; Class = ?
A) class C

Q) Form: Item = U23A C63A ; Class = ?
A) class C

Q) Form: Item = U37A A45G ; Class = ?
A) class A

Q) Form: Item = C75U ; Class = ?
A) class A

Q) Form: Item = G5A C36U ; Class = ?
A) class A

Q) Form: Item = C14A C85G ; Class = ?
A) class C

Q) Form: Item = A45C C75G ; Class = ?
A) class B

Q) Form: Item = C15A C41A ; Class = ?
A) class C

Q) Form: Item = U46A C62U ; Class = ?
A) class C

Q) Form: Item = C26U G73U ; Class = ?
A) class C

Q) Form: Item = G39A C66G ; Class = ?
A) class C

Q) Form: Item = C33U U60A ; Class = ?
A) class C

Q) Form: Item = A16G C19G ; Class = ?
A) class A

Q) Form: Item = C32G C66G ; Class = ?
A) class A

Q) Form: Item = C24A C33A ; Class = ?
A) class A

Q) Form: Item = C19U U69A ; Class = ?
A) class B

Q) Form: Item = U20G C62G ; Class = ?
A) class A

Q) Form: Item = U20A A70C ; Class = ?
A) class A

Q) Form: Item = G25A U79G ; Class = ?
A) class A

Q) Form: Item = G1C G76U ; Class = ?
A) class A

Q) Form: Item = C61G U79C ; Class = ?
A) class C

Q) Form: Item = C19G C30U ; Class = ?
A) class A
